The measurements presented in this section are drawn from PubChem BioAssay (NCATS).

# EXPERIMENTAL SYSTEM: Glucocorticoid receptor (Homo sapiens) (UniProt P04150)
# Sequence (P04150 whole entry, looked up): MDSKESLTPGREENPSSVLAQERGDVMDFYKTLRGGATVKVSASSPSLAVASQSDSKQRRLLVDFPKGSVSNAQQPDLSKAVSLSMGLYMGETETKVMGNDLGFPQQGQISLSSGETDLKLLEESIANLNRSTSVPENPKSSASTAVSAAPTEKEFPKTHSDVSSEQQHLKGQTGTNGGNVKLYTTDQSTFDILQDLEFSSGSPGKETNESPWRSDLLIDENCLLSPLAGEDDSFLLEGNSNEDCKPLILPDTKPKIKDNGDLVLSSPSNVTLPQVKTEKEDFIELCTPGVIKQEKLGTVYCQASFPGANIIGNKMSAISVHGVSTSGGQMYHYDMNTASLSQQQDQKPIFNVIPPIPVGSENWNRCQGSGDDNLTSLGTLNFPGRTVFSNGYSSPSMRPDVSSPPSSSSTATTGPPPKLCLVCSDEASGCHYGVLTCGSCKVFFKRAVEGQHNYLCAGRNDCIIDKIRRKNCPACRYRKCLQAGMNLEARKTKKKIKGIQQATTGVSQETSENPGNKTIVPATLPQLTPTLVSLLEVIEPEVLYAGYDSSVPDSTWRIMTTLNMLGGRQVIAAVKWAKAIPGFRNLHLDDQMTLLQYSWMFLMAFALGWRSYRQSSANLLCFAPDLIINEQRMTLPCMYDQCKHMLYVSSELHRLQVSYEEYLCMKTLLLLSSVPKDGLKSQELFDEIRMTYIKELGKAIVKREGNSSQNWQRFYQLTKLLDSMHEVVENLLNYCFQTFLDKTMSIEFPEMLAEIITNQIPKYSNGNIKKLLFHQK
# ASSAY TEXT: qHTS assay for small molecule agonists of glucocorticoid receptor signaling (AID 588532);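 also: 100% = dexamethasone at 0.1 µM and 0% = DMSO only wells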
# CONDITION: HeLa MMTV-bla, beta-lactamase ratio, agonist, 18 h; active compounds read high; percent of dexamethasone control, DMSO zero
Records with an inconclusive call do not appear.
Reported activation by item:
Return type: number; implicit unit %.

COMPOUND	RESULT VALUE
CCC(Cl)CC(Cl)C(Cl)C(Cl)C(Cl)C(C)Cl (centres undefined)	4.73
CC(C)OCC1CO1 (centres undefined)	-3.64
O=C(O)c1cc(N=Nc2ccc([N+](=O)[O-])cc2)ccc1O	-18.2
C=Cc1cccc(C)c1	-2.15

Look up activation of Cc1ccc(O)c(N)c1 and report it. 4.97

Answer with reported activation of O=CC(=O)c1ccccc1 -5.46

Consider the compound CC(C)(C)C(=O)C1C(=O)c2ccccc2C1=O . State its measured activation. -3.45

Output activation of O=[N+]([O-])c1cc(Cl)c(Cl)c(Cl)c1Cl 0.473

Identify the reported activation for the following entry. C[C@@H]1CC2(OC(O)[C@]3(C)O[C@H]23)O[C@H]2C[C@@]3(C)[C@@H]4CC[C@H]5C(C)(C)C(O[C@@H]6OC[C@@H](O)[C@H](O)[C@H]6O)CC[C@@]56C[C@@]46CC[C@]3(C)[C@@H]12 (some centres undefined) 1.76

###

# ASSAY TEXT: Cell Viability - LYMP2-003 (AID 965);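 also: cells exposed to compounds for 24 h before reading; 0% = DMSO only and full effect = 92 µM tetraoctylammonium bromide; nearly all actives have a fitted effect of over 50% in size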
# CONDITION: LYMP2-003 lymphoblastoid cell viability; series mostly up to 92.2 µM
Records with an inconclusive call do not appear. Calls of active or inactive are those of the source. Calls follow the shape of the dose curve; as a rule, active = well fitted cell-killing curve with a large enough effect; inconclusive = small, poorly fitted or top-dose-only effect, or effect the other way; inactive = flat fitted curve, though single readings scatter.
Output constraint: value belongs to label 1 (active), label 0 (inactive)

>>> df
           compound  label_value
0  Nc1ccc(N)c(Cl)c1      label 0

We next turn to a different compound, shown below.
// return assay outcome for NC(=O)c1ccc([N+](=O)[O-])cc1 label 0

###

# System: CP203
# ASSAY TEXT: qHTS profiling for inhibitors of Plasmodium falciparum proliferation (AID 504749); also: nearly all actives have a fitted effect of over 60% in size
# CONDITION: P. falciparum in erythrocytes, SYBR Green DNA, 72 h; series mostly up to 28.7 µM
Results filed as inconclusive are left out. The source made the active and inactive calls. The call rests on the fitted dose curve; in most records, active means well fitted inhibition curve with a large enough effect; inconclusive means small, poorly fitted or top-dose-only effect; inactive means flat fitted curve, though single readings scatter.
// classify into active, inactive

Record request — test call for CC(C)(C)NC[C@@H](O)c1ccc(O)c(CO)n1 inactive

For C[C@H]1C[C@@H]2[C@H]3CCC4=CC(=O)C=C[C@@]4(C)[C@@]3(Cl)[C@@H](O)C[C@]2(C)[C@]1(OC(=O)c1ccco1)C(=O)CCl , which call appears in the assay record? active

Record lookup: outcome of this test for COc1cccc2c1C(=O)c1c(O)c3c(c(O)c1C2=O)C[C@](O)(C(=O)CO)C[C@@H]3O[C@H]1C[C@H](N)[C@@H](O)[C@H](C)O1 ? inactive

# lookup: test call for CN1[C@@H]2CC(OC(=O)[C@@H](CO)c3ccccc3)C[C@@H]1[C@H]1O[C@H]12 (stereo not given in full) inactive

Field: outcome | Entry: N[C@@H](Cc1ccccc1)C(=O)O inactive

###

# EXPERIMENTAL SYSTEM: Glucocorticoid receptor (Homo sapiens)
# ASSAY TEXT: GR-EFC Redistribution (AID 451); also: potency is read from the fitted curve at half-maximal effect
# CONDITION: CHO-K1 GR-EFC translocation, beta-gal luminescence, 2 h
The source made the active and inactive calls. Calls come from the whole dose curve.
Catalogue of molecules with associated Potency

State recorded Potency with Glucocorticoid receptor (Homo sapiens), entry N=C(N)SCC(=O)O , no comment. > 9.22 µM (inactive)

Retrieve Potency on Glucocorticoid receptor (Homo sapiens); query C[C@H](OP(=O)(O)O)[C@H](N)C(=O)O > 9.22 µM (inactive)

System Glucocorticoid receptor (Homo sapiens). Read-out Potency. Item O=C(O)CSc1ccn(Cc2ccccc2)c1 . Report value. > 9.22 µM (inactive)

###

activity change, negative = inhibition for assorted molecules
# ASSAY TEXT: AP1 Signaling Pathway (AID 357);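 also: ME-180 reporter cells stimulated with EGF at its EC50 level; % is scaled to controls: 0 for no effect and ±100 for the full control effect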
# CONDITION: ME-180 (cervical carcinoma) AP-1-bla reporter, EGF-induced, beta-lactamase ratio, 5 h; at 38 µM (top of the series)
Results filed as inconclusive are left out.
Quick note: give the figure in %, leave out the unit.

In [3]: df
Out[3]:
                                  structure                            readout_type  result_value
0  Cc1cn([C@H]2C[C@H](N=[N+]=[N-])[C@H](CO)O2)c(=O)[nH]c1=O  activity change, negative = inhibition          1.21
1  CC(C)(C)c1ccc([C@@H](O)CCCN2CCC(C(O)(c3ccccc3)c3ccccc3)CC2)cc1  activity change, negative = inhibition          6.21
2  Cc1nnc(SCC2=C(C(=O)O)N3C(=O)[C@@H](NC(=O)Cn4cnnn4)[C@@H]3SC2)s1  activity change, negative = inhibition          2.44

Shift focus to the following entry.
Provide only the value of recorded activity change, negative = inhibition for CC(=O)N1CCN(c2ccc(OC[C@@H]3CO[C@@](Cn4ccnc4)(c4ccc(Cl)cc4Cl)O3)cc2)CC1 -10.5

###

# EXPERIMENTAL SYSTEM: Cytochrome P450 1A2 (Homo sapiens)
# ASSAY TEXT: p450-cyp1a2 (AID 410);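 also: -100% = full effect of reference inhibitor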
# CONDITION: recombinant CYP1A2, luciferin-ME demethylation, luminescence; series mostly up to 11.4 µM
Results filed as inconclusive are left out. Calls of active or inactive are those of the source. The call rests on the fitted dose curve.
READOUT TYPE: activity change, negative = inhibition

Consider the reported activity change, negative = inhibition for these compounds:
>>> df
                                   compound                    result_value
0  Cn1c(=O)c2c(ncn2CN2CCN(Cn3cnc4c3c(=O)n(C)c(=O)n4C)CC2)n(C)c1=O  -18.2% [at 2.29 µM] (inactive)
1  Cn1c(=O)c2c(nc(Cc3ccccc3)n2CC(=O)O)n(C)c1=O  -13.2% [at 2.29 µM] (inactive)

# return recorded activity change, negative = inhibition for entry O=C(O)[C@@H]1[C@@H](C(=O)Nc2ccccc2)[C@@H]2C=C[C@@H]1O2 -18.1% [at 2.29 µM] (inactive)

State its activity change, negative = inhibition: CC1(C)OC[C@@H]2O[C@H](n3cnc4c(N)nc(Cl)nc43)[C@@H](OS(C)(=O)=O)[C@@H]2O1 -14.5% [at 2.29 µM] (inactive)

Return reported activity change, negative = inhibition. Input compound: O=C(O)[C@@H]1[C@@H](C(=O)Nc2ncccn2)[C@@H]2C=C[C@@H]1O2 -13.2% [at 2.29 µM] (inactive)

For O=C(O)C1CC2(C1)CC(C(=O)O)C2 (stereo not given) , write its activity change, negative = inhibition. -6.3% [at 2.29 µM] (inactive)

For O=C(O)C[C@H]1OCC=C2C[N@@+]3([O-])CC[C@]45c6ccccc6N[C@@H]4[C@@H]1[C@H]2C[C@H]53 , write its activity change, negative = inhibition. -14.3% [at 2.29 µM] (inactive)

Quote activity change, negative = inhibition reported for O=[N+]([O-])c1ccc(S(=O)(=O)Cc2ccccc2)c2nonc12 please. -5.3% [at 2.29 µM] (inactive)

Quote activity change, negative = inhibition reported for NS(=O)(=O)c1ccc(NCc2cnc3ccccc3n2)cc1 please. -18.2% [at 2.29 µM] (inactive)

Specify reported activity change, negative = inhibition for the compound shown: C[C@@]1(C(=O)O)CCC[C@@H]1C(=O)O -9.8% [at 2.29 µM] (inactive)

###

# EXPERIMENTAL SYSTEM: Nuclear receptor subfamily 1 group I member 2 (Rattus norvegicus) (UniProt Q9R1A7)
# Sequence (Q9R1A7 whole entry, looked up): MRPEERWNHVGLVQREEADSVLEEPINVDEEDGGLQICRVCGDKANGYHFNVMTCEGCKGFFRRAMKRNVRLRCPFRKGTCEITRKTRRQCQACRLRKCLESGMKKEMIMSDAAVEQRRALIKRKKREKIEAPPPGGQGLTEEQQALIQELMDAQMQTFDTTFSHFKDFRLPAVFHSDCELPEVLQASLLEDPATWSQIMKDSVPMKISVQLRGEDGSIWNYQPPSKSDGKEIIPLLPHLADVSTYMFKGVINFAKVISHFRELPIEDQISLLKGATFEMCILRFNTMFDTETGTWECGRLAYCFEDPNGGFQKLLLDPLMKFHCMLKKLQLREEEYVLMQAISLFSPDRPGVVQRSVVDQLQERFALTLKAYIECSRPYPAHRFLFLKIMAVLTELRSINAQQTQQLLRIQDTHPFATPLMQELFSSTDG
# ASSAY TEXT: qHTS assay for small molecule activators of the rat pregnane X receptor (rPXR) signaling pathway (AID 651751); also: 0% is about no effect
# CONDITION: rPXR reporter cells, luciferase (One-Glo), 24 h
Reported max response is given for each of the following molecules.
Output spec: scalar in %, unitless text.

Solved cases below.
In [3]: df
Out[3]:
                                   molecule  readout_type  result_value
0  CCCCC(CC)COP(=O)(OCC(CC)CCCC)OCC(CC)CCCC (stereo not drawn)  max response          1.51
1               Nc1ccc(-c2ccc(N)c(O)c2)cc1O  max response         -1.46
2  CC(=O)OC(C(=O)c1ccccc1)c1ccccc1 (stereo not drawn)  max response          1.59
3               C=CC1CO1 (stereo not drawn)  max response          4.12

Please give measured max response of the following entry: Oc1ccc(O)c2c(O)cccc12 1.1

Supply recorded max response for COc1ccc(C)cc1N here. 8.96

Give max response for the following molecule: Cc1ccc(N)cc1[N+](=O)[O-] -0.278

Quick one: give measured max response for Cc1cc(-c2ccc(N=Nc3cc(S(=O)(=O)O)c4ccccc4c3N)c(C)c2)ccc1N=Nc1cc(S(=O)(=O)O)c2ccccc2c1N -3.26
